- Test: chemical genetic growth profiling, strain panel (AID 1159580);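 further: tested at 20 µM; growth read once vehicle control cultures reached saturation at 30 °C; 1 = growth at the plate median or of vehicle wells; lower values mean less growth of the strain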
- Run Conditions: S. cerevisiae deletion strains, growth OD, locus YBR231C, strain swc5, active compounds read low
Out of some 5,500 compounds screened, about 2,000 (36%) were called active. Roughly 18% stayed inconclusive and do not appear here. Some of the results follow.
# Lookup of reported normalized growth keyed by entry

Compound	normalized growth
COC(=O)[C@H]1[C@H]2C[C@H]3c4[nH]c5cc(OC)ccc5c4CCN3C[C@H]2C[C@@H](OC(=O)c2cc(OC)c(OC)c(OC)c2)[C@@H]1OC	1.01
CC(=O)O[C@@H]1c2c(ccc3ccc(=O)oc23)OC(C)(C)[C@@H]1OC(=O)CC(C)C	1
Oc1ccc2c3c1OC1[C@@H](O)CC[C@@]4(O)[C@@H](C2)N(CC2CCC2)CC[C@]314 (stereo partly drawn)	0.997
COc1c(O)cc2c(c1O)[C@H]1O[C@H](CO)[C@@H](O)[C@H](O)[C@@H]1OC2=O	1.02
C[C@H]1[C@H](C)CC[C@]2(C(=O)O)CC[C@]3(C)C(=CCC4[C@@]5(C)C[C@@H](O)[C@H](O)[C@@](C)(CO)C5[C@H](O)C[C@]43C)[C@H]12 (stereo partly drawn)	0.953
O=c1c2cc(O)c(O)cc2oc2cc(O)c(C3O[C@H](CO)[C@H](O)[C@@H](O)[C@H]3O)c(O)c12 (stereo partly drawn)	1.03
CCC(=O)NCC[C@@H]1CCc2ccc3c(c21)CCO3	0.993
CC(=O)N1CCN(c2ccc(OCC3CO[C@](Cn4ccnc4)(c4ccc(Cl)cc4Cl)O3)cc2)CC1 (stereo partly drawn)	0.0937
